# TARGET SYSTEM: PD brain-derived a-syn aggregates (Homo sapiens, UniProt P37840)
# Construct: from tissue; host or cells: human PD donor brain, sarkosyl-insoluble 100,000 x g pellet
# ASSAY TEXT: Micro-radiobinding competition assay against Example-1 [^3H-1] (Table 8)
# Type: binding
# REPORTED CONDITIONS: competition over Example-1 [^3H-1]
Values of Ki strictly less than 60 nM map to Condition met, and values of at least 60 nM map to Condition not met.

[[record]]
molecule = "Cc1cncc(N2Cc3nn(-c4ccc(N5CC[C@H](F)C5)nc4)cc3C2=O)c1"
cat = "Condition not met"

[[record]]
molecule = "Cn1cc(N2Cc3nn(-c4ccc(N5CC[C@@H](F)C5)nc4)cc3C2=O)cn1"
cat = "Condition met"

[[record]]
molecule = "Cn1ccc(-n2cc3c(n2)CN(c2cncc(F)n2)C3=O)n1"
cat = "Condition met"

[[record]]
molecule = "O=C1c2cn(-c3ccc(N4CC[C@H](F)C4)nc3)nc2CN1c1ccncc1"
cat = "Condition met"

[[record]]
molecule = "Cc1c2c(nn1-c1ccc(N3CC[C@@H](F)C3)nc1)CN(c1ccccn1)C2=O"
cat = "Condition met"

[[record]]
molecule = "O=C1c2cn(-c3ccc(N4CC[C@@H](F)C4)nc3)nc2CN1c1cc(O)ccn1"
cat = "Condition met"

[[record]]
molecule = "O=C1c2cn(-c3ccc(N4CC[C@@H](F)C4)nc3)nc2CN1c1ccccn1"
cat = "Condition met"

[[record]]
molecule = "O=C1c2cn(-c3ccc(N4CC[C@H](F)C4)nc3)nc2CN1c1cn[nH]c1"
cat = "Condition not met"

[[record]]
molecule = "O=C1c2cn(-c3ccc(N4CC[C@@H](F)C4)nc3)nc2CN1c1cncc(F)c1"
cat = "Condition met"

[[record]]
molecule = "COc1ccc(N2Cc3nn(-c4ccc(N5CC[C@@H](F)C5)nc4)cc3C2=O)cc1"
cat = "Condition met"

[[record]]
molecule = "O=C1c2cn(-c3ccc(N4CCCC4)nc3)nc2CN1c1ccncc1F"
cat = "Condition met"

[[record]]
molecule = "O=C1c2cn(-c3ccc(N4CCC[C@@H](F)C4)nc3)nc2CN1c1cccnc1"
cat = "Condition met"

[[record]]
molecule = "COc1cncc(N2Cc3nn(-c4ccc(N5CC[C@H](F)C5)nc4)cc3C2=O)c1"
cat = "Condition not met"

[[record]]
molecule = "O=C1c2cn(-c3ccc(N4CC[C@@H](F)C4)nc3)nc2CN1c1ccncc1"
cat = "Condition met"

[[record]]
molecule = "O=C1c2cn(-c3ccc(N4CCOCC4)nc3)nc2CN1c1cnc(F)cn1"
cat = "Condition met"

[[record]]
molecule = "O=C1c2cn(-c3ccc(N4CC[C@H](F)C4)nc3)nc2CN1c1ccnnc1"
cat = "Condition not met"

[[record]]
molecule = "O=C1c2cn(-c3ccc(N4CC[C@H](F)C4)nc3)nc2CN1c1cccc(O)n1"
cat = "Condition not met"

[[record]]
molecule = "O=C1c2cn(-c3ccc(N4CC(F)C4)nc3)nc2CN1c1cccnc1"
cat = "Condition not met"

